test system: HCT-116; assay: NCI tumour cell line growth inhibition, 48 h
Active and inactive are the calls of the source. Rule as the data show it: active = GI50 up to about 1.1 µM and inactive = higher.
measurement_kind: GI50

// GI50 value for `CC(=O)/C=C1\Nc2ccc([N+](=O)[O-])cc2N\C1=C/C(C)=O` : 28.8 µM (inactive)

# GI50 (molecule: CC1(C(=O)NCCN(CCNC(=O)C2(C)CC3(C)CC(C)(C2)C(=O)NC3=O)CCNC(=O)C2(C)CC3(C)CC(C)(C2)C(=O)NC3=O)CC2(C)CC(C)(C1)C(=O)NC2=O (stereo not drawn) ) is > 100 µM (inactive)

Item: NC(=O)/C(=N\NC(=O)c1cc2ccccc2cc1O)C1C(=O)N(c2ccccc2)N=C1N (stereo not drawn) | GI50: 27.2 µM (inactive)

For C/C=C1\CN2CCc3c([nH]c4ccccc34)C2C=C1CCO (stereo not drawn) the molecule record lists GI50 as > 340 µM (inactive)

Per the records, this molecule ( CN(C)/N=C(/c1nc2ccc([N+](=O)[O-])cc2nc1O)C(O)c1ccco1 (stereo not drawn) ) has GI50 equal to > 100 µM (inactive)

// sample `O=C(O)C1=CCCc2ccc3ccccc3c21` , its GI50 was > 100 µM (inactive)

// `CCOC(=S)SSSC(=S)OCC` : GI50 value = 20.8 µM (inactive)

More entries:
Just so you know, measured GI50 for `CCOC(=O)/C(C#N)=C/c1ccc2c(-c3c(OCC)ccc4cc(/C=C(\C#N)C(=O)OCC)ccc34)c(OCC)ccc2c1` came out at > 100 µM (inactive)

###

tested on: MDA-MB-231; assay: NCI tumour cell line growth inhibition, 48 h
Activity calls are given as the source filed them. No stated cut-off is given here; in the data, active = GI50 up to about 1.1 µM and inactive = higher.
measurement_kind: GI50

Recorded results for 4 compounds are shown here.
Quick note, GI50 for `O=c1[nH]c2ccc(C(F)(F)F)cc2nc1C(F)(F)F` landed at 28.3 µM (inactive)

The compound listed as `CCOC(CCCN1CCC2(CC1)C(=O)N(C)CN2c1ccccc1)(OCC)c1ccc(F)cc1` shows GI50 equal to 14.2 µM (inactive)

CCCC[P+](CCCC)(CCCC)C(C(=O)OC)C(C(=O)OC)=C1SC(C(=O)OC)=C(C(=O)OC)S1 (stereo not given) yielded GI50 of > 100 µM (inactive)

Field GI50 (entry COc1cc2oc3c(c(=O)c2c(O)c1/C=C/C(C)C)C(C=C(C)C)Oc1cc(O)ccc1-3 (stereo not given) ) reads 18 µM (inactive)

Now for the compound whose GI50 we want.
GI50 reading for CC(C)(C)[Si](C)(C)OCC1OC(n2ccc(=O)[nH]c2=O)C(O[Si](C)(C)C(C)(C)C)[C@@]12O[C@H]2C(N)=O (stereo not given in full) : 4.61 µM (inactive)

###

test system: M14; test: NCI tumour cell line growth inhibition, 48 h
Activity calls are given as the source filed them. Cut-off read from the data, not from the text of the source: active = GI50 up to about 1.1 µM and inactive = higher.
This section presents compounds with their documented GI50 values.

Observe how each entry below is paired with its result.
Measured GI50 (M14), entry `NS(=O)(=O)c1ccc(Nc2c3ccccc3nc3c(C(=O)NCCCN(CCO)CCO)cccc23)cc1` : 24.2 µM (inactive)

CC(=O)OC1CC[C@@]2(C)C(C1)CC(OC(C)=O)[C@@H]1C2CC(OC(C)=O)[C@]2(C)C(C(C)CC=C(c3ccc(Cl)cc3)c3ccc(Cl)cc3)CCC12 (stereo partly drawn) tested on M14 gave GI50: 80.4 µM (inactive)

Others:
Measured GI50 (M14), entry COc1ccc(C2OC2C(=O)C23CC4CC(CC(C4)C2)C3)cc1 (stereo not drawn) : > 100 µM (inactive)
